Molecular target: LNX1_2, Q8TBB1
Sequence (Q8TBB1 371-470): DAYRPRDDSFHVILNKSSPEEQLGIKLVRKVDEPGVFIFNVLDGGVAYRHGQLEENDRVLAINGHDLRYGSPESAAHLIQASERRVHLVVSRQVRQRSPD
Test: holdup assay
Set-up: key: below the threshold = too weak to quantify, mostly under pKd 3.1 to 4
Details: plain residues with an end cap or a label only (N-terminal biotin on a linker: ado-ado)

| BINDER | pKd |
| --- | --- |
| AQRARSPSDV [GPR12, P47775] | below the threshold |
| QSYPSKHDYV [CLDN18, P56856] | 3.69 |
| SFISKKEWYV [NECTIN1, Q15223] | 4.46 |
| ELSATVTTDC [TRIP6, Q15654] | 3.88 |
| TNSRHGETTV [FZD2, Q14332] | 3.78 |
| STKRKLASAV [NCF1, P14598] | below the threshold |
| GEDRSPPTAL [MKNK1, Q9BUB5] | below the threshold |
| GTGYDRKDYV [CLDN3, O15551] | below the threshold |
| SRSVVESDEL [MYPN, Q86TC9] | below the threshold |
| AAVENKVTDL [PLXNB1, O43157] | below the threshold |
| PTPDLPQTRV [KLHDC7A, Q5VTJ3] | below the threshold |
| RDPPAEWTRV [PTPN18, Q99952] | 3.47 |
| NNNVVKVDSV [MTNR1A, P48039] | below the threshold |
